Target Or Test System: GST-Nv-NF-kB (Ser allele) (Nematostella vectensis, UniProt A7UNT2 2-411)
Sequence: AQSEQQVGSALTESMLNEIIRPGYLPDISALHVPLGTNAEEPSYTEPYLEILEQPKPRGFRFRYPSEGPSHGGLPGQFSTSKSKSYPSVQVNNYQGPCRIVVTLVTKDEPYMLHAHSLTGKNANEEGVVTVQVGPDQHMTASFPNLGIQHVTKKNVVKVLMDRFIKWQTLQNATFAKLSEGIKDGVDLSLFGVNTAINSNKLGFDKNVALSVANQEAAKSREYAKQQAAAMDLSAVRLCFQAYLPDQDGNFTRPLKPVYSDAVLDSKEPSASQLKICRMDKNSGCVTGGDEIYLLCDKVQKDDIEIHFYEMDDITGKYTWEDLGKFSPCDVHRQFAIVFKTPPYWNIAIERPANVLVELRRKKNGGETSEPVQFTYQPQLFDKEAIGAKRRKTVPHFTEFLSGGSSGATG
Measurement Description: protein-binding microarray (PBM); PBM: ~300 nM protein, 6 mM HEPES pH 7.8, 80 mM KCl, 0.5 mM EDTA, 0.5 mM EGTA, 6% glycerol, 35 ng/ul poly-dIdC, 1% milk, 1 h, room temperature; Ap Aiptasia and Nv Nematostella (sea anemones) / Co Capsaspora / Aq Amphimedon (sponge) / Dm Drosophila / Hu human; RHD is the Rel homology domain; high values mean tight binding
Run Conditions: dsDNA, one strand shown
Listing of recorded binding signal by entry.
Measured Property: binding signal (z-score)

>>> value("CCGATTAACATCAAAAAAGTACCTGATGTTAATCGGGTCTTGATTCGCTTGACGCTGCTG")
11.4
>>> value("CCGATTAACATCAAAAATTCCCATGATGTTAATCGGGTCTTGATTCGCTTGACGCTGCTG")
6.99
>>> value("CCGATTAACATCACTTATCCCCCTGATGTTAATCGGGTCTTGATTCGCTTGACGCTGCTG")
4.72
>>> value("CCGATTAACATCAGATCTCCCCCTGATGTTAATCGGGTCTTGATTCGCTTGACGCTGCTG")
6.01
>>> value("CCGATTAACATCAGTAATCCCCATGATGTTAATCGGGTCTTGATTCGCTTGACGCTGCTG")
6.91
>>> value("CCGATTAACATCAATTCCCAAAATGATGTTAATCGGGTCTTGATTCGCTTGACGCTGCTG")
2.29
>>> value("CCGATTAACATCATGTTAGGGAATGATGTTAATCGGGTCTTGATTCGCTTGACGCTGCTG")
2.76
>>> value("CCGATTAACATCAGGGAAGAACCTGATGTTAATCGGGTCTTGATTCGCTTGACGCTGCTG")
3.35
>>> value("CCGATTAACATCAAAAAATTTTCTGATGTTAATCGGGTCTTGATTCGCTTGACGCTGCTG")
1.98
